Target: UniProtKB O15379
Assay: Inhibition of full length human recombinant HDAC3 expressed in baculovirus infected Sf9 cells using RHKKAc fluorogenic peptide as substrate incubated for 2 hrs
Property Measured: IC50

May I ask what IC50 has been recorded for CC(C)(C)OC(=O)Nc1cccc(-c2cc(C(=O)NCCc3cc(C(=O)NO)no3)no2)c1 ?
> 50 µM

---

Target: Protein deacetylase HDAC6 (Homo sapiens, UniProt Q9UBN7)
Sequence (Q9UBN7 whole entry): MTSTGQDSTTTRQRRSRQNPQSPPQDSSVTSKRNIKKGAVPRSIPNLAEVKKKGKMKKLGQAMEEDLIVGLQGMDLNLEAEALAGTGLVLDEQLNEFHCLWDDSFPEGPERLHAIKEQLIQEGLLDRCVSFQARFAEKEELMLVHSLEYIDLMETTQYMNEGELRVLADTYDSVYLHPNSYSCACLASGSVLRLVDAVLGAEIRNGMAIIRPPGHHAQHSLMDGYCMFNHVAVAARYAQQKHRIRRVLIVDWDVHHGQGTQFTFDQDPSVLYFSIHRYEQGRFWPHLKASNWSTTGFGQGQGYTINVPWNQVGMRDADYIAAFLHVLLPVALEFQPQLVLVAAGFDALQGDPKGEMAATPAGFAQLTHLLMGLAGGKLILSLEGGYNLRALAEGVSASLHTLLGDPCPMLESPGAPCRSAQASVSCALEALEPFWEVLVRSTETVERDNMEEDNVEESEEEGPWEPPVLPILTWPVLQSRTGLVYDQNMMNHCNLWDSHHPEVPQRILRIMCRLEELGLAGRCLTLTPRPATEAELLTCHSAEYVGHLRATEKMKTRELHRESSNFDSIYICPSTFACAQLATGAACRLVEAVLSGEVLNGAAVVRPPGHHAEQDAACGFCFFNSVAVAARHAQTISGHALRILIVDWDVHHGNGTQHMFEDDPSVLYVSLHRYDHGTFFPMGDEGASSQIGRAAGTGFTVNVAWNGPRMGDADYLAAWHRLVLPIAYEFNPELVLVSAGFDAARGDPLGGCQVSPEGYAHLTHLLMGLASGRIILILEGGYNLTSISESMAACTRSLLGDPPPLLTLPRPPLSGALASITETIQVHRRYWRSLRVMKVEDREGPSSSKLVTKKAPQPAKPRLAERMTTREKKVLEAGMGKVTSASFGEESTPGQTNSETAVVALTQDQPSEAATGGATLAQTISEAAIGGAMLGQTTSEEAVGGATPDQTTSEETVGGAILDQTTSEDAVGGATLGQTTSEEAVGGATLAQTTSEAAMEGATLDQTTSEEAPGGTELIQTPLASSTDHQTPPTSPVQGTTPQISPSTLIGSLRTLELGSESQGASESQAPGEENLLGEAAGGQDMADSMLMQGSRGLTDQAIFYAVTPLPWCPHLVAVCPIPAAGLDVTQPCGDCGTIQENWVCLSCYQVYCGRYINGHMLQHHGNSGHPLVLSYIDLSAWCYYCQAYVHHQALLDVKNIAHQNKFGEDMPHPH
Assay: Inhibition of HDAC6 (unknown origin)
Overview of recorded IC50 for various compounds
API: value field is a number in nM; no unit string.

GET /values?readout=IC50&system=Protein deacetylase HDAC6 (Homo sapiens, UniProt Q9UBN7)&item= CCN(CC)Cc1ccc(Cn2c(=O)c(OCc3ccc(C(=O)NO)cc3)c(-c3ccccc3)c3ccccc32)cc1
6.9

Field: next compound
GET /values?readout=IC50&system=Protein deacetylase HDAC6 (Homo sapiens, UniProt Q9UBN7)&item= CCN(CC)Cc1ccc(Cn2c(=O)c(OCc3ccc(C(=O)NO)cc3)c(-c3cccnc3)c3ccccc32)cc1
11.5

---

Target: Histone deacetylase 3 (Homo sapiens)
Sequence (O15379 whole entry): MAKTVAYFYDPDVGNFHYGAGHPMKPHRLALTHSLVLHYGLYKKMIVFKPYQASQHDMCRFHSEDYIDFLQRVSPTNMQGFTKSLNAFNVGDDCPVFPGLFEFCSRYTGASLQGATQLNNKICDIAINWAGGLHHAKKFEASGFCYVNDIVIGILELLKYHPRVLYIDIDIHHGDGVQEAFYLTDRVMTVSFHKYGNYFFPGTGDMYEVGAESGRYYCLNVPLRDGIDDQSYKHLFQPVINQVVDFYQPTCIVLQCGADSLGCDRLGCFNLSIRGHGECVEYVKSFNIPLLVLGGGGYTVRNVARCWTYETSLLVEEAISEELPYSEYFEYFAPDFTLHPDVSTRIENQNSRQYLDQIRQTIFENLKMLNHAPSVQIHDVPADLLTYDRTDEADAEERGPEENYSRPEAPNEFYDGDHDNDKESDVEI
Property Measured: pIC50
Here pIC50 is given on a logarithmic scale as minus log10 of the concentration in mol/L.

May I ask what pIC50 has been recorded for O=C(NO)c1ccc(CN2CCCc3cc(Cl)ccc32)cc1 ?
4.53

---

Target: Protein deacetylase HDAC6 (Homo sapiens, UniProt Q9UBN7)
Assay: Inhibition of human recombinant HDAC6 using BML-AK511 as substrate incubated for 60 mins by fluorimetric assay
Property Measured: pIC50
Here pIC50 is given on a logarithmic scale as minus log10 of the concentration in mol/L.

GET /values?readout=pIC50&system=Protein deacetylase HDAC6 (Homo sapiens, UniProt Q9UBN7)&item= O=S(=O)(N1CCN(C2COC2)CC1)N(Cc1ccc(-c2nnc(C(F)(F)F)o2)cn1)c1ccc(F)c(Cl)c1
7.85

---

Target: UniProt Q96DB2
Sequence (Q96DB2 whole entry): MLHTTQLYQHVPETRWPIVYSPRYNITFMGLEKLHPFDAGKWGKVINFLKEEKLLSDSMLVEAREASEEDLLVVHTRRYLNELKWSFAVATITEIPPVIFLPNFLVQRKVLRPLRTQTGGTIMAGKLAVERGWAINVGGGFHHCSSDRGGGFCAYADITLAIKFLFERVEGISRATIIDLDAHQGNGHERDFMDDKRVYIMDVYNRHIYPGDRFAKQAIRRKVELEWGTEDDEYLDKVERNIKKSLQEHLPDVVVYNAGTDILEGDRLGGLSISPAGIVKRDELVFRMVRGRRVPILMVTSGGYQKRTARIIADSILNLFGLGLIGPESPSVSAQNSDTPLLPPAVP
Test: Inhibition of full length human recombinant HDAC11 using RHKKAc-AMC fluorogenic peptide as substrate incubated for 2 hrs by microplate reader assay
Property Measured: IC50 (µM)
API: value field is a number in µM; no unit string.

GET /values?readout=IC50&system=UniProt Q96DB2&item= O=C(NO)c1ccc(CN2CCCc3cc(Cl)ccc32)cc1
5.72

---

Target: Polyamine deacetylase HDAC10 (Homo sapiens, UniProt Q969S8)
Sequence (Q969S8 whole entry): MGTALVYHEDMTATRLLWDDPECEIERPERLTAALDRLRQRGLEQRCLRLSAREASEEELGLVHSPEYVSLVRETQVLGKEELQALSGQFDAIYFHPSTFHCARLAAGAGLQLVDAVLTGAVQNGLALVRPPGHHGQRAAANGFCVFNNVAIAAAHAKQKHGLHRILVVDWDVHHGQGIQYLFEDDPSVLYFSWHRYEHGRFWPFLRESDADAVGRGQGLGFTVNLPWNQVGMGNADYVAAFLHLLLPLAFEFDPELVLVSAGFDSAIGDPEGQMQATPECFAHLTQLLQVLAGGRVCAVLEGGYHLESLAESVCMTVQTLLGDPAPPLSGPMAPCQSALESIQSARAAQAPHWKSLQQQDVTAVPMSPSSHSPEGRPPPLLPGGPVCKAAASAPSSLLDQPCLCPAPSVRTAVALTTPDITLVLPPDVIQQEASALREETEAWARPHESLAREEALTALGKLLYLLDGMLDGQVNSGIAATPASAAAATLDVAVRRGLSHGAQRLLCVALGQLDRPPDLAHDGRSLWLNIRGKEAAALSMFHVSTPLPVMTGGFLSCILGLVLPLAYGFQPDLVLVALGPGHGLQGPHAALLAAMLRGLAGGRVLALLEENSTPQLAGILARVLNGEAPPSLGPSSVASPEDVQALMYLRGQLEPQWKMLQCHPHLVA
Assay: Inhibition of full length human recombinant HDAC10 incubated for 30 to 60 mins by HDAC-Glo I/II assay
Property Measured: pIC50
Here pIC50 is given on a logarithmic scale as minus log10 of the concentration in mol/L.

May I ask what pIC50 has been recorded for COc1ccc2c3c(cccc13)C(=O)N(Cc1ccc(C(=O)NO)cc1)C2=O ?
6.43

---

Target: Histone deacetylase 5 (Homo sapiens, UniProt Q9UQL6)
Sequence (Q9UQL6 whole entry): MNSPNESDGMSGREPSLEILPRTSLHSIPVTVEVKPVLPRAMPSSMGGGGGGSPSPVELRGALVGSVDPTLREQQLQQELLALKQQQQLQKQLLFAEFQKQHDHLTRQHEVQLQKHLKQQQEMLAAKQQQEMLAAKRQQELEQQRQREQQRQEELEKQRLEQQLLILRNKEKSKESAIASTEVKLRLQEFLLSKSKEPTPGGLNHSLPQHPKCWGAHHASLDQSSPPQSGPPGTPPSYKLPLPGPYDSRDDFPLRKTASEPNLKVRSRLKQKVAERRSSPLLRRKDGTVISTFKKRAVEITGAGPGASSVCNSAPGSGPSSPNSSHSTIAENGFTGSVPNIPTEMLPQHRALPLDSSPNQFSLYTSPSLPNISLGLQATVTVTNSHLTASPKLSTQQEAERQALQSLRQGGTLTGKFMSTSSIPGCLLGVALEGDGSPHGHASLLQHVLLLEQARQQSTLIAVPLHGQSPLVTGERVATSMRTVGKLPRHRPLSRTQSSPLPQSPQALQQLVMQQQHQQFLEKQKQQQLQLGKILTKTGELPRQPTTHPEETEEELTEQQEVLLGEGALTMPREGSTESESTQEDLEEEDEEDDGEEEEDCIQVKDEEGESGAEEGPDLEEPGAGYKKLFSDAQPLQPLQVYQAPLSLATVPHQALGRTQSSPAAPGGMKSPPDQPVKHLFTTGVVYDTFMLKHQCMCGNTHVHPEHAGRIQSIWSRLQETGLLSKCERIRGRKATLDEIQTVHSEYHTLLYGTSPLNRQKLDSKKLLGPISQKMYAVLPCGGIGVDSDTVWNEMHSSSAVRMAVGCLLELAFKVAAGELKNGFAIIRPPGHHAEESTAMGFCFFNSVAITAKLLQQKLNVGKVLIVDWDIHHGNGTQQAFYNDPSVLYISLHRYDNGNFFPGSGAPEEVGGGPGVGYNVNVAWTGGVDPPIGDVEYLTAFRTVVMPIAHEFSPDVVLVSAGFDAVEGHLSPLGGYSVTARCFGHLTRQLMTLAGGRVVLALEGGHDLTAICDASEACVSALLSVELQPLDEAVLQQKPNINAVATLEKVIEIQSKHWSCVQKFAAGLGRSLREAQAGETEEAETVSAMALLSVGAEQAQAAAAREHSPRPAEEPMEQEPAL
Assay: Inhibition of full length human recombinant HDAC5 using Ac-LGK(TFA)-AMC fluorogenic peptide as substrate incubated for 2 hrs by microplate reader assay
Property Measured: IC50 (µM)
API: value field is a number in µM; no unit string.

May I ask what IC50 has been recorded for O=C(NO)c1ccc(CN2CCCc3cc(Cl)ccc32)cc1 ?
4.07

---

Target: Histone deacetylase 8 (Homo sapiens)
Sequence (Q9BY41 whole entry): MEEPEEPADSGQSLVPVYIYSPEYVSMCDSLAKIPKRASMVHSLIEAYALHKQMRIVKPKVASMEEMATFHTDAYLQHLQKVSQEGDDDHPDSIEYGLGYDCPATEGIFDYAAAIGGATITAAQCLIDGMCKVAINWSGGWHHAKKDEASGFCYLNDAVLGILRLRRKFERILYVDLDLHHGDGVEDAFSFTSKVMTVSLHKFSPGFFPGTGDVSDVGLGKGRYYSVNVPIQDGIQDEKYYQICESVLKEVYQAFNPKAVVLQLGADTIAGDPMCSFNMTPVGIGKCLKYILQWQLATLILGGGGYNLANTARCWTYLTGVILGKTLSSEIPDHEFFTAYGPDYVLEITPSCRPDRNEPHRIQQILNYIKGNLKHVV
Assay: Inhibition of full length human recombinant HDAC8 incubated for 30 to 60 mins by HDAC-Glo I/II assay
pIC50: −log10 of the molar value.
Property Measured: pIC50

May I ask what pIC50 has been recorded for COc1ccc2c3c(cccc13)C(=O)N(Cc1ccc(C(=O)NO)cc1)C2=O ?
< 4.52
